From: PubChem BioAssay AID1963832

Tested on: 885724-159-R-J1-PDC complex spheroid viability;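 further: spheroids exposed to compounds for 7 days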
assayComment: Anticancer human tumor 885724-159-R-J1-PDC patient-derived pancreatic adenocarcinoma cell line growth inhibition [POLQ]
measurementConditions: second compound 1 µM; first compound 3.16 µM; hits give low values

>  <compound>
O=c1[nH]cc(F)c(=O)[nH]1 + Nc1ccc(C#CCN(C(=O)Cc2ncc(C(F)(F)F)cc2C(F)(F)F)c2ccc(F)cc2)nn1

>  <testTarget>
885724-159-R-J1-PDC complex spheroid viability;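 further: spheroids exposed to compounds for 7 days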

>  <viability, T/C [%]>
81.3

$$$$
>  <compound>
O=C(Nc1ccc(O)c(NS(=O)(=O)c2ccc(F)cc2)c1)c1ccc(-c2ccccc2)cc1 + Nc1ccc(C#CCN(C(=O)Cc2ncc(C(F)(F)F)cc2C(F)(F)F)c2ccc(F)cc2)nn1

>  <testTarget>
885724-159-R-J1-PDC complex spheroid viability;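 further: spheroids exposed to compounds for 7 days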

>  <viability, T/C [%]>
101

$$$$
>  <compound>
O=C(c1cc(Cc2n[nH]c(=O)c3ccccc23)ccc1F)N1CCN(C(=O)C2CC2)CC1 + Nc1ccc(C#CCN(C(=O)Cc2ncc(C(F)(F)F)cc2C(F)(F)F)c2ccc(F)cc2)nn1

>  <testTarget>
885724-159-R-J1-PDC complex spheroid viability;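 further: spheroids exposed to compounds for 7 days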

>  <viability, T/C [%]>
88.7

$$$$
>  <compound>
CC1COCCN1c1cc(C2(S(C)(=N)=O)CC2)nc(-c2ccnc3[nH]ccc23)n1 (stereo unspecified) + COC1C(OC(N)=O)C(O)C(Oc2ccc3c(O)c(NC(=O)c4ccc(O)c(CC=C(C)C)c4)c(=O)oc3c2C)OC1(C)C

>  <testTarget>
885724-159-R-J1-PDC complex spheroid viability;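 further: spheroids exposed to compounds for 7 days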

>  <viability, T/C [%]>
49.1

$$$$
>  <compound>
CC1COCCN1c1cc(C2(O)CC3CCC(C2)O3)c2cnn(-c3ccn[nH]3)c2n1 (stereo unspecified) + COC1C(OC(N)=O)C(O)C(Oc2ccc3c(O)c(NC(=O)c4ccc(O)c(CC=C(C)C)c4)c(=O)oc3c2C)OC1(C)C

>  <testTarget>
885724-159-R-J1-PDC complex spheroid viability;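 further: spheroids exposed to compounds for 7 days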

>  <viability, T/C [%]>
31.2

$$$$
>  <compound>
CNCc1ccc(-c2[nH]c3cc(F)cc4c3c2CCNC4=O)cc1 + COC1C(OC(N)=O)C(O)C(Oc2ccc3c(O)c(NC(=O)c4ccc(O)c(CC=C(C)C)c4)c(=O)oc3c2C)OC1(C)C

>  <testTarget>
885724-159-R-J1-PDC complex spheroid viability;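 further: spheroids exposed to compounds for 7 days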

>  <viability, T/C [%]>
92.4

$$$$
>  <compound>
COc1cc2cc(C(=O)CCC(=O)O)sc2cc1OC + COC1C(OC(N)=O)C(O)C(Oc2ccc3c(O)c(NC(=O)c4ccc(O)c(CC=C(C)C)c4)c(=O)oc3c2C)OC1(C)C

>  <testTarget>
885724-159-R-J1-PDC complex spheroid viability;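 further: spheroids exposed to compounds for 7 days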

>  <viability, T/C [%]>
104

$$$$
>  <compound>
O=c1[nH]cc(F)c(=O)[nH]1 + Cc1cccc(N(C)C(=O)C2C(O)CCN2c2nc(C)cc(C(F)(F)F)c2C#N)c1

>  <testTarget>
885724-159-R-J1-PDC complex spheroid viability;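 further: spheroids exposed to compounds for 7 days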

>  <viability, T/C [%]>
92

$$$$
>  <compound>
CNCc1ccc(-c2[nH]c3cc(F)cc4c3c2CCNC4=O)cc1 + Cc1cccc(N(C)C(=O)C2C(O)CCN2c2nc(C)cc(C(F)(F)F)c2C#N)c1

>  <testTarget>
885724-159-R-J1-PDC complex spheroid viability;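 further: spheroids exposed to compounds for 7 days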

>  <viability, T/C [%]>
91

$$$$
>  <compound>
CC(C)n1c(=O)n(C)c2cnc3cc(F)c(-c4ccc(OCCCN5CCCCC5)nc4)cc3c21 + COC1C(OC(N)=O)C(O)C(Oc2ccc3c(O)c(NC(=O)c4ccc(O)c(CC=C(C)C)c4)c(=O)oc3c2C)OC1(C)C

>  <testTarget>
885724-159-R-J1-PDC complex spheroid viability;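 further: spheroids exposed to compounds for 7 days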

>  <viability, T/C [%]>
97

$$$$
>  <compound>
CCc1cc2c(N3CCc4c(cc(Cn5ccnc5)cc4-c4cn(C)nc4C(F)(F)F)C3=O)ccnc2c(OC)n1 + Nc1ccc(C#CCN(C(=O)Cc2ncc(C(F)(F)F)cc2C(F)(F)F)c2ccc(F)cc2)nn1

>  <testTarget>
885724-159-R-J1-PDC complex spheroid viability;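 further: spheroids exposed to compounds for 7 days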

>  <viability, T/C [%]>
80.1

$$$$
